system: HEK293T; assay: median enrichment of reporter reads in eGFP-reduced (low/intermediate) vs eGFP-high sorted cells (eGFP-extension fusion abundance) (ratio); higher = stronger loss of eGFP-fusion protein abundance (more destabilising extension)
Observed property: median enrichment

> print(dat)
                                   substance  recorded.value
 1    WARVVARPCTTAIANQSPKAKFTCCSHPQ [MAGEB2]            8.12
 2                          RHSPLLVPH [TP53]           0.971
 3  LALLSRWGLPETVCFVSPTTITATWLLPCGRRVTG [SF3B3]            34.6
 4  WGPVHAGGLRDPHNPQTQSPRALPKPLAWLQSRLRAGATYPCAGTCSLCSVLITPP [RUSC2]            7.23
 5  WADPGYVPYPRGLSIDRDYIITWLEVKGSIQVLHLVLPCLLSDHSDGLMWLLMWNCRRVQRRVCNKAIGKHTGAFPSPSGPRP [HS3ST3B1]            4.31
 6  LPGPGFAPAPASGPPGSRCGGCGPRAGARRRRRRREGARPAGRNRSDSRQEPGTEPGTEQQVRPGPPRLGADSDALGGSRKGG [NKX6-2]            6.82
 7  RGTLRSPKTSSCWGPHEGTSTLWGVARKRQALQLGDPIWKRDSDLPTSSSSFSTKAPVDSREVVKIFFSPIFLPASGDTAAVT [PGPEP1]            2.83
 8  SKCVLRASLFFTAAATFPHCLRCREGQVPASTGISDKPRAQPTRGSSLHAHTGYGDGGLQVSSARGLSLWHPHSCPAREALVV [SSNA1]            5.95
 9                          KFGAQTSP [SPRR3]           0.603
10  DPTPLWGSGTLHCTGSLHTGRGTCAPTSETCRSPQLTCPTGAQHCTQLVGRTRACLRELPAGVMQGGGEVQGRGAGLSCHQHF [MAP3K11]            2.41
11  VGIRAAPSGAGTAGTAAILLLLVFFLLSKINCGNILVSCDVRCSFVVKFAIDIEIMTSVFPEIKHVSTQDFLDHSRKCQTFSQ [KISS1R]            7.04
12                  RSAAIRWKPLEPEAAA [FXYD6]              12
13                        LSDHPAFPN [TMBIM6]            0.54
14  RGAHGQDWWGLQDVRRVRCLALATLFLVGFCCCSCYFHL [PSMC3IP]            7.83
15  CLGKAGHKNLHEQYFFLNRMFYYSSQVLECLHTII [FAM24A]            4.34
16                  QHTQNSLTRTISFCKGF [KRR1]            1.62
17  LKNKSPLQNTPPSHSAPQLPTTARLSSFASVASPALHALAGTVAAAFSCSVMPSSCLKQKKIMHCVF [STXBP1]            6.42
18                       WSQLTSLSRKVYP [CD9]            1.91
19  WGMFVPGKAGGEPLQHLYIQEACREELVCWPQEEWELQTRSSDSLWPESNLVSPPASLF [FGF1]            7.24
20  LMGCSLLLSFLGLLCFAVLENHKERNSYGEVRKTEKDSCVKLFFACKLLHFKRPPLFLQRTFFAQLWTLSMVP [DLX5]            11.5
21  PTVRPQRGQDKPCPDAFDRQLCVLVDRCRNKEEMESAPEKLQIQARREVLRKDLQQLHIHINQHNTGWRPNSGVHKRRRDVVG [H6PD]            5.25
22                CRRQKISFVQKSKMKRM [INSIG2]            3.96
23                             WLHW [RIMKLB]            3.98
24             LFQPGPKPTGVCGRARTQEV [DNMT3B]            3.86
25  QYLTGHHRILWIFFPSFWFWFRANSCFIGTVYEAFETKNNEE [GALC]            6.16
26          WNEKYCGHLNNGLVSYNEMFSRILK [UGP2]            3.44
27              YKKVGTMRGRGL [Degron APPBP2]            16.9
28  RDALAMAQEKPARKNQTDFHTKEEASIFFFLFFIGVVTKPFRLLLFKI [QRICH1]              33
29       YIIHCIFYFYHILHIQQNLYVVIGII [ELMOD2]             7.8
30               LGLRVHTGWQEASKGS [SERPINH1]            4.89
31                          LGSVQGLSH [CST5]            0.51

###

test system: HEK293T; assay: median enrichment of reporter reads in eGFP-reduced (low/intermediate) vs eGFP-high sorted cells (eGFP-extension fusion abundance) (ratio); higher = stronger loss of eGFP-fusion protein abundance (more destabilising extension);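 also: lentiviral eGFP-IRES-mCherry reporter pool sorted by FACS 96 h post-transduction, gated on mCherry-high cells, Illumina read counts normalized per million, median across four biological replicates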
Attribute: median enrichment
Observed property: median enrichment

> print(dat)
                                   substance  recorded.value
 1  LDALAMAQEKPARKNQTDFHTKEEASIFFFLFFIGVVTKPFRLLLFKI [QRICH1]            10.6
 2             WQHFCILKKCNLFLITALKL [UBQLN1]            12.2
 3                   CESVHQTKCGKNTKKT [GYPA]           0.413
 4                      YSQLKECEILNY [MTREX]            1.31
 5              LPEKLCQLQGGSDFRKVV [HERPUD2]           0.919
 6  QGNWALPHVFLLPPRDSNDMYSHLGHACLPNTIWSWTTFDTNQSYWTRPLEDLKYTSHAVVYLGCDSLSNAALGKDESDLQGE [APOBEC2]             6.1
 7                              CCP [RUBCNL]           0.512
 8      YTDYIGSFELTSDKGGKFRQHYDLINFIF [MSH6]            21.1
 9  TPAPGLGRELTRTGCSQKAGPSLSPKPLLDLWRSCRLDREAVPLSSPSPSRASPWSFRSSFWGLFQVRRMEEGGQATQHPPTP [FOXN4]            5.36
10                        YMILKPETI [TRIP11]             4.3
11   WPQFQLSWAPAWTLPMAMPSLGNLSLPSVG [PLA2G3]            12.4
12  QSTGRKCFWTEVVAVEGVASSCRQTIILEILVEVPSPIRHSNMSTNALKWN [EPHA3]            14.9
13                           YYYYYYY [Tyr07]            3.18
14       LRRVLSNLFFFFLYLHLQPQLSHFSP [MTMR11]            11.6
15  CQVLCGAEIPCRHFACSNQQDPAPRSPGAIIMQPAVLLWRGQVTFQKTPSWMGLPFCSSPHSRISNGSLL [BCL2L11]              11
16                          YKGRAQQCK [IRX2]           0.955
17  GRRADSLAAPVLSPAILPYQGHWPLPSLCEGYFL [CYP2C18]              17
18                         DDDDDDDDD [Asp09]           0.213
19  EPSPPLLCVGTGGPWPVPGHSGQGPRDISTRSWRAVRIHSACPALAGQRQGRTFGKTKTVGDRVCVYLCVSVSVCERELVSLK [TCF15]            6.39
20   SYGTLAPRHEARWPVFLNLKCKILLFPGPRRV [ICOS]              11
21                        CCCCCCCCCC [Cys10]            9.58
22                         YLSGLSVL [MCOLN3]              19

Numbers sourced from the supplement of paper PMC11502859.
